For each record, write down the corresponding MIC.
# Test system: Pseudomonas aeruginosa
# Protocol notes: Antibacterial activity against Pseudomonas aeruginosa 19-5 assessed as inhibition of bacterial growth measured after 18 to 20 hrs by broth microdilution method
# Assay type: functional
# Condition label: time 18-20 hrs
Numbers only, in µg/mL.

CCCCCCCSSCc1ccc(-c2ncc(C(=O)N[C@@H](CCN)C(=O)N(C)[C@@H]3C(=O)N[C@@H](C)C(=O)N[C@H](C(=O)NCC#N)Cc4ccc(OCCN)c(c4)-c4cc3ccc4OCCN)c(C)n2)cc1.O=C(O)C(F)(F)F.O=C(O)C(F)(F)F.O=C(O)C(F)(F)F.O=C(O)C(F)(F)F : 4

Note to self: MIC recorded for Cc1nc(-c2ccc(SSC(C)C)cc2)ncc1C(=O)N[C@@H](CCN)C(=O)N(C)[C@@H]1C(=O)N[C@@H](C)C(=O)N[C@H](C(=O)NCC#N)Cc2ccc(OCCN)c(c2)-c2cc1ccc2OCCN.O=C(O)C(F)(F)F.O=C(O)C(F)(F)F.O=C(O)C(F)(F)F.O=C(O)C(F)(F)F was 4
